Assay: qHTS assay to identify small molecule antagonists of the thyroid receptor (TR) signaling pathway - cell viability counter screen (AID 743064); further: nearly all actives have a fitted effect of over 50% in size
Conditions: GH3.TRE-Luc viability, CellTiter-Fluor, 24 h; series mostly up to 70.3 µM
Inconclusive results are not listed. Activity calls are given as the source filed them. The call rests on the fitted dose curve; in most records, active means well fitted cell-killing curve with a large enough effect in the repeat runs; inconclusive means weak or mixed curves, or effect the other way; inactive means no such curve, though single readings can be large or run the other way.
reportedProperty: outcome

itemSmiles: O=c1c2ccccc2c(=O)c2c1cc(Cl)c1[nH]c3c([nH]c12)c(Cl)cc1c(=O)c2ccccc2c(=O)c13
reportedProperty: outcome
result: inactive

itemSmiles: Clc1ccc(C(Cl)(Cl)Cl)cc1Cl
reportedProperty: outcome
result: inactive

itemSmiles: O.O.O.O.O.O.O=S(=O)([O-])[O-].[Ni+2]
reportedProperty: outcome
result: inactive

---

Test: qHTS assay to identify small molecule agonists of the farnesoid-X-receptor (FXR) signaling pathway - cell viability counter screen (AID 743218); further: nearly all actives have a fitted effect of over 45% in size
Conditions: FXR-bla HEK293T viability, CellTiter-Glo luminescence, 16 h; series mostly up to 62.6 µM
Description: U.S. Tox21 Program National Center for Advancing Translational Sciences [NCATS] NIH Chemical Genomics Center [NCGC] U.S. Environmental Protection Agency [EPA] National Institutes of Environmental Health Sciences [NIEHS] National Toxicology Program [NTP] U.S. Food and Drug Administration [FDA] Tox21 Assay Overview: The farnesoid-X-receptor (FXR), a nuclear hormone receptor, is highly expressed in liver, intestine, kidney and adrenal cortex. […]
Records with an inconclusive call do not appear. Activity calls are given as the source filed them. The call rests on the fitted dose curve; in most records, active means well fitted cell-killing curve with a large enough effect in the repeat runs; inconclusive means weak or mixed curves, or effect the other way; inactive means no such curve, though single readings can be large or run the other way.
Hi! Could you answer with just one of these? active, inactive

Worked examples follow.
molecule: CCCCn1cc[n+](C)c1.[Cl][Fe-]([Cl])([Cl])[Cl]
qualitativeLabel: inactive
--
molecule: O=c1c2ccccc2c(=O)c2c1cc(Cl)c1[nH]c3c([nH]c12)c(Cl)cc1c(=O)c2ccccc2c(=O)c13
qualitativeLabel: inactive
--
molecule: C=C(C)C(=O)[O][Sn]([CH2]CCC)([CH2]CCC)[CH2]CCC
qualitativeLabel: active

# input for lookup
In this assay, the call recorded for CCn1cc[n+](C)c1 (tested in a mixture with another compound) was what? inactive

---

Assay: qHTS assay to identify small molecule antagonists of the estrogen related receptor (ERR) signaling pathway from Tox21 library - cell viability counter screen (AID 1224834); further: nearly all actives have a fitted effect of over 30% in size
Details: ERR reporter cells viability, CellTiter-Fluor, 17.5 h; series mostly up to 92.4 µM
Records with an inconclusive call do not appear. Activity calls are given as the source filed them. Calls follow the shape of the dose curve; as a rule, active = well fitted cell-killing curve with a large enough effect in the repeat runs; inconclusive = weak or mixed curves; inactive = flat fitted curve, though single readings scatter.
reportedProperty: outcome

Example entries begin here.
compound: C#CCO
outcome: inactive
//
compound: O=Cc1ccccc1
outcome: inactive
//
compound: C[N+]1(C)[C@@H]2CC[C@H]1CC(OC(=O)C(CO)c1ccccc1)C2 (stereo partly drawn)
outcome: inactive
//
compound: CCCCN(CCCC)C(=S)S
outcome: inactive
//
compound: COC(=O)c1ccccc1S(=O)(=O)NC(=O)Nc1nc(C)nc(OC)n1
outcome: inactive

Your task in this section: give outcome for each listed record.
1. Oc1ccc([C@H]2CNCc3c2ccc(O)c3O)cc1O
2. CC(C)N(C(=O)SC/C(Cl)=C/Cl)C(C)C
3. ClC(Cl)C(Cl)(Cl)Cl

["inactive", "inactive", "inactive"]

---

Test: A CellTox Green Cytotoxicity Assay to monitor cytotoxicity in HepG2 cells - 32 hour (AID 1224883); further: nearly all actives have a fitted effect of over 50% in size
Conditions: CellTox Green fluorescence; series mostly up to 76.8 µM
Inconclusive results are not listed. Calls of active or inactive are those of the source. The call rests on the fitted dose curve; in most records, active means well fitted activation curve with a large enough effect in the repeat runs; inconclusive means weak or mixed curves; inactive means flat fitted curve, though single readings scatter.
Hi! Could you answer with just one of these? active, inactive

Worked examples follow.
itemSmiles: CCCCCCCc1ccc(O)cc1
qualitativeLabel: active
--
itemSmiles: c1csc(-c2ccc(-c3cccs3)s2)c1
qualitativeLabel: inactive
--
itemSmiles: O=[N+]([O-])c1ccc(CCl)cc1
qualitativeLabel: inactive
--
itemSmiles: O=C(N[C@@H]1N=C(c2ccccc2F)c2cccc3c2N(CC3)C1=O)c1cc2ccccc2[nH]1
qualitativeLabel: active
--
itemSmiles: O=Cc1ccccc1
qualitativeLabel: inactive

# input for lookup
In this assay, the call recorded for CSSC was what? inactive

---

Assay: qHTS RealTime-Glo MT Cell Viability Assay in HepG2 cells - 8 hour (AID 1224873); further: nearly all actives have a fitted effect of over 55% in size; further: potency means the concentration at half of the fitted maximal effect
Conditions: RealTime-Glo luminescence; series mostly up to 76.8 µM
Results filed as inconclusive are left out. Active and inactive are the calls of the source. The call rests on the fitted dose curve; in most records, active means well fitted cell-killing curve with a large enough effect in the repeat runs; inconclusive means weak or mixed curves; inactive means flat fitted curve, though single readings scatter.
reportedProperty: Potency

Example entries begin here.
compound: Clc1cc(Cl)c(-c2cc(Cl)c(Cl)cc2Cl)cc1Cl
reportedProperty: Potency
result: inactive

compound: O=NN(CCO)CCO
reportedProperty: Potency
result: inactive

compound: Brc1cccc(-c2ccccc2)c1
reportedProperty: Potency
result: inactive

compound: CC(C)c1c(CN(C)C(C)Cc2ccccc2)n(C)n(-c2ccccc2)c1=O (stereo unspecified)
reportedProperty: Potency
result: inactive

compound: C=CC(=O)[O][Sn]([CH2]CCC)([CH2]CCC)[CH2]CCC
reportedProperty: Potency
result: 0.977 µM (active)

compound: [O-][Cl+3]([O-])([O-])O
reportedProperty: Potency
result: inactive

compound: CCC[CH2][Sn]([CH2]CCC)([CH2]CCC)[O][Sn]([CH2]CCC)([CH2]CCC)[CH2]CCC
reportedProperty: Potency
result: 0.956 µM (active)

compound: O=c1[nH]c(Cl)c(Cl)cc1Cl
reportedProperty: Potency
result: inactive

compound: Cc1nn(-c2cc(NS(C)(=O)=O)c(Cl)cc2Cl)c(=O)n1C(F)F
reportedProperty: Potency
result: inactive

compound: CC(Cc1ccccc1)N(C)Cc1ccco1 (stereo unspecified)
reportedProperty: Potency
result: inactive

Your task in this section: give Potency for each listed record.
1. CCC(C)Br (stereo unspecified)
2. CN
3. CC(C)=CCN1CC[C@@]2(C)c3cc(O)ccc3C[C@@H]1[C@@H]2C
4. CC(C)N(C(=O)SC/C(Cl)=C/Cl)C(C)C
5. CN(C)CCc1c[nH]c2ccccc12
6. Cc1c([N+](=O)[O-])c(C)c([N+](=O)[O-])c(C(C)(C)C)c1[N+](=O)[O-]

1. inactive
2. inactive
3. inactive
4. inactive
5. inactive
6. inactive

Your task in this section: give Potency for each listed record.
1. COP(=S)(OC)Oc1ccc([N+](=O)[O-])c(C)c1
2. CC(=O)[O][Sn]([c]1ccccc1)([c]1ccccc1)[c]1ccccc1
3. CCCCCON=O

["inactive", "11 µM (active)", "inactive"]

Your task in this section: give Potency for each listed record.
1. NC1CCC(CC2CCC(N)CC2)CC1 (stereo unspecified)
2. O=C(Nc1ccc(F)cc1F)c1cccnc1Oc1cccc(C(F)(F)F)c1

1: inactive; 2: inactive

---

Test: A CellTox Green Cytotoxicity Assay to monitor cytotoxicity in HepG2 cells - 32 hour (AID 1224883); further: nearly all actives have a fitted effect of over 50% in size; further: potency means the concentration at half of the fitted maximal effect
Conditions: CellTox Green fluorescence; series mostly up to 76.8 µM
Records with an inconclusive call do not appear. Active and inactive are the calls of the source. The call rests on the fitted dose curve; in most records, active means well fitted activation curve with a large enough effect in the repeat runs; inconclusive means weak or mixed curves; inactive means flat fitted curve, though single readings scatter.
reportedProperty: Potency

Example entries begin here.
molecule: COc1cnc(OC)n2nc(NS(=O)(=O)c3c(OCC(F)F)cccc3C(F)(F)F)nc12
Potency: inactive
//
molecule: Oc1cc(Cl)cc(Cl)c1
Potency: inactive
//
molecule: COC(=O)N(OC)c1ccccc1COc1ccn(-c2ccc(Cl)cc2)n1
Potency: inactive
//
molecule: CSC(=O)c1c(C(F)F)nc(C(F)(F)F)c(C(=O)SC)c1CC(C)C
Potency: inactive
//
molecule: Clc1cc(Cl)c(-c2cc(Cl)c(Cl)cc2Cl)cc1Cl
Potency: inactive
//
molecule: CN1C2CCC(C)(C)C1CC(OC(=O)C(O)(c1cccs1)c1cccs1)C2 (centres undefined)
Potency: inactive

Your task in this section: give Potency for each listed record.
1. CNN
2. [O]=[Cr](=[O])([OH])[O][Cr](=[O])(=[O])[OH]
3. C=CC(=O)[O][Sn]([CH2]CCC)([CH2]CCC)[CH2]CCC

1: inactive; 2: 12.4 µM (active); 3: 0.692 µM (active)

---

Experiment: qHTS assay for small molecule agonists of the antioxidant response element (ARE) signaling pathway - cell viability counter screen (AID 743203); further: nearly all actives have a fitted effect of over 55% in size
Settings: ARE-bla HepG2 viability, CellTiter-Glo luminescence, 16 h; series mostly up to 73.3 µM
Records with an inconclusive call do not appear. Calls of active or inactive are those of the source. The call rests on the fitted dose curve.
Hi! Could you answer with just one of these? t = active, f = inactive

Worked examples follow.
itemSmiles: c1ccc(Nc2ccc(Nc3ccccc3)cc2)cc1
qualitativeLabel: t
//
itemSmiles: CC1=C2C[C@H]3[C@@H](CC=C4C[C@@H](O)CC[C@@]43C)[C@@H]2CC[C@]12O[C@@H]1C[C@H](C)CN[C@H]1[C@H]2C
qualitativeLabel: f
//
itemSmiles: COCCC#N
qualitativeLabel: f
//
itemSmiles: CCc1cccc(C)c1N(C(=O)CCl)[C@@H](C)COC
qualitativeLabel: f
//
itemSmiles: [O]=[Cr][O][Cr]=[O]
qualitativeLabel: f

# input for lookup
In this assay, the call recorded for Oc1cccc(Cl)c1Cl was what? f
